# credit: patent US20250084095A1

Reported pIC50, CDK9-CYCLIN T1 (Homo sapiens (Human), UniProt P50750).
Please note pIC50 is a logarithmic value: minus log10 of concentration in mol/L. Answer with that number alone.

Molecule: CC(C)n1c(C(C)(C)O)nc2c(F)cc(-c3nc(N[C@@H]4C[C@H]5CO[C@H](O5)[C@H]4O)ncc3Cl)cc21 [Compound 1]
pIC50: 5.31

Next up:
Consider the molecule CC(C)n1c(C(C)(C)O)nc2c(F)cc(-c3nc(N[C@@H]4CCOC[C@H]4O)ncc3Cl)cc21 [Reference Compound, PF-07220060, reference compound] and give its measured pIC50. 5.73

----------
Experimental system: UniProtKB P06493
Sequence (P06493 whole entry): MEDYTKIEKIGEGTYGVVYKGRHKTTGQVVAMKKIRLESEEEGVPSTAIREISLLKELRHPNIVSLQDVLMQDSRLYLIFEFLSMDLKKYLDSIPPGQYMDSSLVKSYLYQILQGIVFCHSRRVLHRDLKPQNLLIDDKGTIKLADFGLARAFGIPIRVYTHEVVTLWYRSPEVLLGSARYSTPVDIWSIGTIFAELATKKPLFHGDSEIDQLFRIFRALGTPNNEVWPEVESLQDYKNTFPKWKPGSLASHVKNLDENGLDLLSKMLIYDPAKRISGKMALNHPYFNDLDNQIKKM
Sequence (P14635 whole entry partner): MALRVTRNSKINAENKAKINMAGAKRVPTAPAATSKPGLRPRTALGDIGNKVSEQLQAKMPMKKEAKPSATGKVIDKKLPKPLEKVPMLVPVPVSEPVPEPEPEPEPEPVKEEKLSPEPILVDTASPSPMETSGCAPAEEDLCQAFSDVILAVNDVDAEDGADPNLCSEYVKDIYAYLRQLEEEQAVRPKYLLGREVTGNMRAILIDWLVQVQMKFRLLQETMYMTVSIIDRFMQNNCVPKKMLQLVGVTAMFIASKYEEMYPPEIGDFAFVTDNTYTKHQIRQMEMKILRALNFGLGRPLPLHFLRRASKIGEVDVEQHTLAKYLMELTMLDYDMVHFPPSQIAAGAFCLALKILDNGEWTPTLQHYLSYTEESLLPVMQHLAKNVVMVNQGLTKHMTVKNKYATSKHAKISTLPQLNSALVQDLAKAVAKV
Measured parameter: pIC50
Please note pIC50 is a logarithmic value: minus log10 of concentration in mol/L. Answer with that number alone.

API: value(readout= pIC50, system= UniProtKB P06493, query= CC(C)n1c(C(C)(C)O)nc2c(F)cc(-c3nc(N[C@@H]4CCOC[C@H]4O)ncc3Cl)cc21 [Reference Compound, PF-07220060, reference compound] ) 5.07
